percentage damage to the plant, ZEAMX by entry:
- Test system: Zea mays (ZEAMX)
- PROCEDURE_SUMMARY: Pre-emergence Test (glasshouse, percentage damage to the plant)
- Assay type: in vivo
- CONDITIONS_USED: 1000 g/ha unless otherwise stated, five-point scale

[
  {
    "COMPOUND": "CCn1c(C)c(-c2ccc(Cl)cc2OC)c(=O)c(C(=O)O)c1-c1ccc(Cl)cc1 [Compound 184]",
    "percentage damage to the plant, ZEAMX": 0
  },
  {
    "COMPOUND": "CCn1c(C)c(-c2ccc(F)cc2C)c(=O)c(C(=O)O)c1-c1ccc(Cl)c(Cl)c1 [Compound 155]",
    "percentage damage to the plant, ZEAMX": "1 (1=0-20%)"
  },
  {
    "COMPOUND": "CCn1c(C)c(-c2cc(F)cc(C#N)c2)c(=O)c(C(=O)O)c1-c1ccc(Cl)c(Cl)c1 [Compound 78]",
    "percentage damage to the plant, ZEAMX": "1 (1=0-20%)"
  },
  {
    "COMPOUND": "CCn1c(C)c(-c2ccc(C(C)=O)cc2)c(=O)c(C(=O)O)c1-c1ccc(Cl)c(Cl)c1 [Compound 90]",
    "percentage damage to the plant, ZEAMX": "1 (1=0-20%)"
  }
]

---

- Tested on: Ipomoea hederacea (IPOHE)
- PROCEDURE_SUMMARY: Post-emergence Test (glasshouse, percentage damage to the plant)
- Format: in vivo
- CONDITIONS_USED: post-emergence; 1000 g/ha unless otherwise stated; evaluated after 13 days
METRIC: IPOHE, percentage damage caused to the plant (five-point scale)

[
  {
    "SUBSTANCE_SMILES": "CCn1c(C)c(-c2cc(F)c(F)c(F)c2)c(=O)c(C(=O)O)c1-c1ccc(Cl)cc1",
    "TESTED_SYSTEM": "Ipomoea hederacea (IPOHE)",
    "RESULT": "3 (3=41-60%)"
  },
  {
    "SUBSTANCE_SMILES": "CCn1c(C)c(-c2cc(OCCOC)c(Cl)cc2F)c(=O)c(C(=O)O)c1-c1ccc(F)c(F)c1",
    "TESTED_SYSTEM": "Ipomoea hederacea (IPOHE)",
    "RESULT": "2 (2=21-40%)"
  },
  {
    "SUBSTANCE_SMILES": "CCn1c(-c2ccc(Cl)c(Cl)c2)c(C(=O)OC)c(=O)c(-c2ccc(Cl)cc2)c1C(F)F",
    "TESTED_SYSTEM": "Ipomoea hederacea (IPOHE)",
    "RESULT": "1 (1=0-20%)"
  },
  {
    "SUBSTANCE_SMILES": "CCn1c(C)c(-c2cccc(C(F)(F)F)n2)c(=O)c(C(=O)O)c1-c1ccc(Cl)c(Cl)c1",
    "TESTED_SYSTEM": "Ipomoea hederacea (IPOHE)",
    "RESULT": "3 (3=41-60%)"
  },
  {
    "SUBSTANCE_SMILES": "CCn1c(C)c(-c2ccc(F)cc2)c(=O)c(C(=O)O)c1-c1cnc(Cl)c(Cl)c1",
    "TESTED_SYSTEM": "Ipomoea hederacea (IPOHE)",
    "RESULT": "1 (1=0-20%)"
  },
  {
    "SUBSTANCE_SMILES": "Cc1c(-c2ccc(F)cc2F)c(=O)c(C(=O)O)c(-c2ccc(Cl)c(Cl)c2)n1C",
    "TESTED_SYSTEM": "Ipomoea hederacea (IPOHE)",
    "RESULT": "2 (2=21-40%)"
  },
  {
    "SUBSTANCE_SMILES": "CCn1c(C)c(-c2ccc3ccccc3n2)c(=O)c(C(=O)O)c1-c1ccc(Cl)c(Cl)c1",
    "TESTED_SYSTEM": "Ipomoea hederacea (IPOHE)",
    "RESULT": "3 (3=41-60%)"
  },
  {
    "SUBSTANCE_SMILES": "CCn1c(C)c(-c2cc(Cl)ccc2F)c(=O)c(C(=O)O)c1-c1ccc(Cl)c(Cl)c1",
    "TESTED_SYSTEM": "Ipomoea hederacea (IPOHE)",
    "RESULT": "3 (3=41-60%)"
  },
  {
    "SUBSTANCE_SMILES": "CCn1c(C)c(-c2cc(C)ccc2F)c(=O)c(C(=O)O)c1-c1ccc(Cl)c(Cl)c1",
    "TESTED_SYSTEM": "Ipomoea hederacea (IPOHE)",
    "RESULT": "3 (3=41-60%)"
  },
  {
    "SUBSTANCE_SMILES": "CCn1c(C)c(-c2ccc(Cl)cc2)c(=O)c(C(=O)O)c1-c1ccc(F)c(Cl)c1",
    "TESTED_SYSTEM": "Ipomoea hederacea (IPOHE)",
    "RESULT": "3 (3=41-60%)"
  },
  {
    "SUBSTANCE_SMILES": "Cc1c(-c2ccc(Cl)cc2F)c(=O)c(C(=O)O)c(-c2ccc(Cl)c(Cl)c2)n1C",
    "TESTED_SYSTEM": "Ipomoea hederacea (IPOHE)",
    "RESULT": "3 (3=41-60%)"
  },
  {
    "SUBSTANCE_SMILES": "CCn1c(C)c(-c2ccnn2C)c(=O)c(C(=O)O)c1-c1ccc(Cl)c(Cl)c1",
    "TESTED_SYSTEM": "Ipomoea hederacea (IPOHE)",
    "RESULT": "3 (3=41-60%)"
  },
  {
    "SUBSTANCE_SMILES": "CCn1c(C)c(-c2ccc(F)c(OC)c2F)c(=O)c(C(=O)O)c1-c1ccc(Cl)c(Cl)c1",
    "TESTED_SYSTEM": "Ipomoea hederacea (IPOHE)",
    "RESULT": "4 (4=61-80%)"
  },
  {
    "SUBSTANCE_SMILES": "CCn1c(-c2ccc(Cl)c(Cl)c2)c(C(=O)O)c(=O)c(-c2ccc(Cl)cc2)c1C(F)F",
    "TESTED_SYSTEM": "Ipomoea hederacea (IPOHE)",
    "RESULT": "2 (2=21-40%)"
  },
  {
    "SUBSTANCE_SMILES": "CCn1c(C)c(-c2ccc(Cl)c(F)c2)c(=O)c(C(=O)O)c1-c1ccc(Cl)cc1",
    "TESTED_SYSTEM": "Ipomoea hederacea (IPOHE)",
    "RESULT": "1 (1=0-20%)"
  },
  {
    "SUBSTANCE_SMILES": "CCn1c(C)c(-c2cccc(C(F)(F)F)c2F)c(=O)c(C(=O)O)c1-c1ccc(Cl)c(Cl)c1",
    "TESTED_SYSTEM": "Ipomoea hederacea (IPOHE)",
    "RESULT": "4 (4=61-80%)"
  },
  {
    "SUBSTANCE_SMILES": "CCn1c(C)c(-c2ccc(F)cc2)c(=O)c(C(=O)OC)c1-c1cnc(Cl)c(Cl)c1",
    "TESTED_SYSTEM": "Ipomoea hederacea (IPOHE)",
    "RESULT": 0
  },
  {
    "SUBSTANCE_SMILES": "CCn1c(C)c(-c2cc(F)ccc2OC)c(=O)c(C(=O)O)c1-c1ccc(Cl)c(Cl)c1",
    "TESTED_SYSTEM": "Ipomoea hederacea (IPOHE)",
    "RESULT": "3 (3=41-60%)"
  },
  {
    "SUBSTANCE_SMILES": "CCn1c(C)c(-c2cc(C)nn2C)c(=O)c(C(=O)O)c1-c1ccc(Cl)c(Cl)c1",
    "TESTED_SYSTEM": "Ipomoea hederacea (IPOHE)",
    "RESULT": "4 (4=61-80%)"
  },
  {
    "SUBSTANCE_SMILES": "CCn1c(C)c(-c2ccc(C#N)cc2)c(=O)c(C(=O)O)c1-c1ccc(Cl)cc1",
    "TESTED_SYSTEM": "Ipomoea hederacea (IPOHE)",
    "RESULT": "1 (1=0-20%)"
  },
  {
    "SUBSTANCE_SMILES": "CCn1c(C)c(-c2cc(C(F)(F)F)ccc2F)c(=O)c(C(=O)O)c1-c1ccc(Cl)c(Cl)c1",
    "TESTED_SYSTEM": "Ipomoea hederacea (IPOHE)",
    "RESULT": "2 (2=21-40%)"
  },
  {
    "SUBSTANCE_SMILES": "CCn1c(C)c(-c2ccc(Cl)cc2Cl)c(=O)c(C(=O)OC)c1-c1cnc(Cl)c(Cl)c1",
    "TESTED_SYSTEM": "Ipomoea hederacea (IPOHE)",
    "RESULT": 0
  },
  {
    "SUBSTANCE_SMILES": "CCn1c(C)c(-c2ccc(Cl)cc2F)c(=O)c(C(=O)OC)c1-c1cnc(Cl)c(Cl)c1",
    "TESTED_SYSTEM": "Ipomoea hederacea (IPOHE)",
    "RESULT": "2 (2=21-40%)"
  },
  {
    "SUBSTANCE_SMILES": "CCn1c(C)c(-c2cc(OCC3CC3)c(Cl)cc2F)c(=O)c(C(=O)O)c1-c1ccc(Cl)c(Cl)c1",
    "TESTED_SYSTEM": "Ipomoea hederacea (IPOHE)",
    "RESULT": "2 (2=21-40%)"
  },
  {
    "SUBSTANCE_SMILES": "CCn1c(C)c(-c2ccc(S(C)(=O)=O)cc2F)c(=O)c(C(=O)O)c1-c1ccc(Cl)c(Cl)c1",
    "TESTED_SYSTEM": "Ipomoea hederacea (IPOHE)",
    "RESULT": "2 (2=21-40%)"
  },
  {
    "SUBSTANCE_SMILES": "CCn1c(C)c(-c2cccc(C)c2F)c(=O)c(C(=O)O)c1-c1ccc(Cl)c(Cl)c1",
    "TESTED_SYSTEM": "Ipomoea hederacea (IPOHE)",
    "RESULT": "3 (3=41-60%)"
  },
  {
    "SUBSTANCE_SMILES": "CCn1c(CCOC)c(-c2ccc(Cl)cc2)c(=O)c(C(=O)O)c1-c1ccc(Cl)c(Cl)c1",
    "TESTED_SYSTEM": "Ipomoea hederacea (IPOHE)",
    "RESULT": 0
  },
  {
    "SUBSTANCE_SMILES": "CCn1c(C)c(-c2cc(OCC3CC3)c(Cl)cc2F)c(=O)c(C(=O)O)c1-c1ccc(F)c(F)c1",
    "TESTED_SYSTEM": "Ipomoea hederacea (IPOHE)",
    "RESULT": "2 (2=21-40%)"
  },
  {
    "SUBSTANCE_SMILES": "CCn1c(C)c(-c2ccc(Cl)cc2)c(=O)c(C(=O)OC)c1-c1cnc(Cl)c(Cl)c1",
    "TESTED_SYSTEM": "Ipomoea hederacea (IPOHE)",
    "RESULT": "1 (1=0-20%)"
  },
  {
    "SUBSTANCE_SMILES": "CCn1c(C)c(-c2cc(C)ccc2C)c(=O)c(C(=O)O)c1-c1ccc(Cl)c(Cl)c1",
    "TESTED_SYSTEM": "Ipomoea hederacea (IPOHE)",
    "RESULT": "1 (1=0-20%)"
  },
  {
    "SUBSTANCE_SMILES": "CCn1c(C)c(-c2ccc(C)cc2F)c(=O)c(C(=O)O)c1-c1ccc(Cl)c(Cl)c1",
    "TESTED_SYSTEM": "Ipomoea hederacea (IPOHE)",
    "RESULT": "5 (5=81-100%)"
  }
]
